Cited source: ChEMBL document CHEMBL5360641

Test: Apparent oral clearance in Sprague-Dawley rat at 10 mg/kg, IG measured upto 24 hrs by LC-MS/MS analysis
Format: ADME, organism-based
Details: in vivo
MEASURED ATTRIBUTE: CL/F (mL/min/kg)
Give a bare numeral; the unit mL/min/kg is implied.

INPUT: # lookup: CL/F of C#C[C@]1(CO)O[C@@H](n2cnc3c(N)nc(F)nc32)[C@@H](F)[C@@H]1O
OUTPUT: 21.2

----------
Test: AUC (0 to t) in female Sprague-Dawley rat at 30 mg/kg, IG measured at 24 hrs LC-MS/MS analysis
Type: ADME, organism-based
Parameters: dose 30 mg/kg, time 24 hrs, route ig
Conditions: in vivo, po
MEASURED ATTRIBUTE: AUC(0-t) at 24 h (ng·h/mL)
Give the value in ng·h/mL but do not write ng·h/mL after it.

INPUT: Entry C#C[C@]1(CO)O[C@@H](n2cnc3c(N)nc(F)nc32)[C@@H](F)[C@@H]1O : reported AUC(0-t) at 24 h = ?
OUTPUT: 26500
